assayDetails: Drug metabolism in rat liver microsomes assessed as disappearance of parent compound at 5 uM after 30 mins in presence of NADPH by UPLC-MS/MS analysis
Give measured metabolised at 0.5 h, 5 µM for each item. Keep answers brief.
Give bare numbers, in %.

Here is how some compounds turned out for metabolised at 0.5 h, 5 µM.
compound	resultUnit	metabolised at 0.5 h, 5 µM
N#Cc1c(N)ncnc1NC(CO)c1nn2cccc2c(=O)n1-c1ccccc1 (single isomer, unassigned)	%	24
C[C@H](Nc1ncnc2[nH]cnc12)c1nn2cccc2c(=O)n1-c1ccccc1	%	18
CC[C@@H](Nc1ncnc2[nH]cnc12)c1nn2cccc2c(=O)n1-c1ccccc1	%	32
N#Cc1c(N)ncnc1N1CC(F)(F)C[C@H]1c1nn2cccc2c(=O)n1-c1ccccc1	%	30
Cc1ccc2c(=O)n(-c3ccccc3)c([C@H](C)Nc3ncnc(N)c3C#N)nn12	%	54

Give metabolised at 0.5 h, 5 µM for each of the items listed below.
1. C[C@H](Nc1ncnc(N)c1C#N)c1nn2ccc(CO)c2c(=O)n1-c1ccccc1
2. C[C@H](Nc1ncnc(N)c1C#N)c1nn2c(C#N)ccc2c(=O)n1-c1ccccc1

1. 7
2. 24

Origin of the recorded values: ChEMBL document CHEMBL3872285
